experimental-system: T1, human PD-L1 (CD274), full-length, expressed on the surface of CHO cells (human, UniProt Q9NZQ7 19-290)
T1 construct: also called huPD-L1; B7-H1
T1 sequence (Q9NZQ7 19-290): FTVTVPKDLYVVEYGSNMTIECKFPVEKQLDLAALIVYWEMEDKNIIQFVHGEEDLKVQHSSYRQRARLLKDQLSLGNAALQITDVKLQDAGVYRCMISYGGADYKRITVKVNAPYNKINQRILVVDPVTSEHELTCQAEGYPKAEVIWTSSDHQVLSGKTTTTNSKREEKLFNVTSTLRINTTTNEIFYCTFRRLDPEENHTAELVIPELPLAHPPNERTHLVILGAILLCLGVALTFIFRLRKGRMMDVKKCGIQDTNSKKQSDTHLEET
test-description: flow cytometry on PD-L1 CHO cells; MFI against WT CD80 ECD-Fc (R&D)
measured-property: Fold change to WT
Phrase the answer as number then unit, nothing more needed.

- binder: "variant CD80 IgV-Fc E35D/D46E/M47V/L97Q (Fc fusion, not shown: a dimerising Fc or GST) VIHVTKEVKEVATLSCGHNVSVEELAQTRIYWQKDKKMVLTMMSGEVNIWPEYKNRTIFDITNNLSIVILALRPSDEGTYECVVLKYEKDAFKREHQAEVTLSVKAD"
  Fold change to WT: "2.45 fold"
- binder: "variant CD80 IgV-Fc Q33L/E35D/M47L/A71G/F92S (Fc fusion, not shown: a dimerising Fc or GST) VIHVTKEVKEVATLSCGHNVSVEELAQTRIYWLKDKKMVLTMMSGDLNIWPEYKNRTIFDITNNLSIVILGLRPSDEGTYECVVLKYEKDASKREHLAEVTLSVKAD"
  Fold change to WT: "3.53 fold"
- binder: "variant CD80 IgV-Fc E35D/M47V/T62A/A71G/V83A/Y87H/L97M (Fc fusion, not shown: a dimerising Fc or GST) VIHVTKEVKEVATLSCGHNVSVEELAQTRIYWQKDKKMVLTMMSGDVNIWPEYKNRTIFDIANNLSIVILGLRPSDEGTYECAVLKHEKDAFKREHMAEVTLSVKAD"
  Fold change to WT: "9.76 fold"
- binder: "variant CD80 IgV-Fc V22A/R29H/E35D/D46E/M47I (Fc fusion, not shown: a dimerising Fc or GST) VIHVTKEVKEVATLSCGHNVSAEELAQTHIYWQKDKKMVLTMMSGEINIWPEYKNRTIFDITNNLSIVILALRPSDEGTYECVVLKYEKDAFKREHLAEVTLSVKAD"
  Fold change to WT: "3.2 fold"
- binder: "variant CD80 IgV-Fc Q33L/E35D/M47L/V68M/L85Q/E88D (Fc fusion, not shown: a dimerising Fc or GST) VIHVTKEVKEVATLSCGHNVSVEELAQTRIYWLKDKKMVLTMMSGDLNIWPEYKNRTIFDITNNLSIMILALRPSDEGTYECVVQKYDKDAFKREHLAEVTLSVKAD"
  Fold change to WT: "15.8 fold"
- binder: "variant CD80 IgV-Fc E35D/M47V/A71G/L85M/L97Q (Fc fusion, not shown: a dimerising Fc or GST) VIHVTKEVKEVATLSCGHNVSVEELAQTRIYWQKDKKMVLTMMSGDVNIWPEYKNRTIFDITNNLSIVILGLRPSDEGTYECVVMKYEKDAFKREHQAEVTLSVKAD"
  Fold change to WT: "7.77 fold"
- binder: "variant CD80 IgV-Fc Q33L/E35D/M43V/M47I/A71G (Fc fusion, not shown: a dimerising Fc or GST) VIHVTKEVKEVATLSCGHNVSVEELAQTRIYWLKDKKMVLTMVSGDINIWPEYKNRTIFDITNNLSIVILGLRPSDEGTYECVVLKYEKDAFKREHLAEVTLSVKAD"
  Fold change to WT: "9.82 fold"
- binder: "variant CD80 IgV-Fc V22A/E35D/V68E/A71D (Fc fusion, not shown: a dimerising Fc or GST, The molecule is an Fc fusion, which the general text describes as a dimer) VIHVTKEVKEVATLSCGHNVSAEELAQTRIYWQKDKKMVLTMMSGDMNIWPEYKNRTIFDITNNLSIEILDLRPSDEGTYECVVLKYEKDAFKREHLAEVTLSVKAD"
  Fold change to WT: "0.17 fold"
- binder: "variant CD80 IgV-Fc H18Y/Y31H/E35D/M47V/A71G/L85Q (Fc fusion, not shown: a dimerising Fc or GST) VIHVTKEVKEVATLSCGYNVSVEELAQTRIHWQKDKKMVLTMMSGDVNIWPEYKNRTIFDITNNLSIVILGLRPSDEGTYECVVQKYEKDAFKREHLAEVTLSVKAD"
  Fold change to WT: "9.61 fold"

Endpoint output: Fold change to WT of variant CD80 IgV-Fc Q33L/E35D/N48K/L85Q/L97Q (Fc fusion, not shown: a dimerising Fc or GST) VIHVTKEVKEVATLSCGHNVSVEELAQTRIYWLKDKKMVLTMMSGDMKIWPEYKNRTIFDITNNLSIVILALRPSDEGTYECVVQKYEKDAFKREHQAEVTLSVKAD . Value?
5.69 fold
